system: N140; test: qHTS profiling for inhibitors of Plasmodium falciparum proliferation (AID 504749); also: nearly all actives have a fitted effect of over 60% in size; conditions: P. falciparum in erythrocytes, SYBR Green DNA, 72 h; series mostly up to 28.7 µM
Results filed as inconclusive are left out. Activity calls are given as the source filed them. Calls follow the shape of the dose curve; as a rule, active = well fitted inhibition curve with a large enough effect; inconclusive = small, poorly fitted or top-dose-only effect; inactive = flat fitted curve, though single readings scatter.
Pick from TRUE = active, FALSE = inactive when you respond.

Some solved entries appear below for comparison.
> print(dat)
                                   compound  classification
1    CC(N)Cc1ccc(O)cc1 (stereo unspecified)           FALSE
2  C[N+]1(C)C2CCC1CC(OC(=O)c1c[nH]c3ccccc13)C2 (stereo unspecified)           FALSE
3  FC(F)OC(F)(F)C(F)Cl (stereo unspecified)           FALSE
4               c1csc(C2(N3CCCCC3)CCCCC2)c1           FALSE
5         C#CC(C)(O)CC (stereo unspecified)           FALSE
6               C[CH2][Hg][S]c1ccccc1C(=O)O            TRUE

Query: // return assay outcome for CC12NC(Cc3ccccc31)c1ccccc12 (stereo unspecified)
Result: FALSE
